Tested on: Trypanosoma cruzi
Assay: Trypanocidal activity against trypomastigote stage of Trypanosoma cruzi INC-5 infected in NIH mouse blood assessed as parasite lysis at 50 ug/ml after 24 hrs by optical microscopic method relative to control
Format: functional
# Activity >= 70% gives met, anything below gives not met

>>> class_label("O=C(O)C(O)C(O)C(=O)O.O=C(c1ccc(F)cc1)C1CCN(CCn2c(=O)[nH]c3ccccc3c2=O)CC1 [KETANSERIN TARTRATE]")
"met"
>>> class_label("COc1cc2nc(N3CCN(C(=O)C4COc5ccccc5O4)CC3)nc(N)c2cc1OC.CS(=O)(=O)O (centres undefined) [DOXAZOSIN MESYLATE]")
"met"
>>> class_label("CC1CS(=O)(=O)CCN1/N=C/c1ccc([N+](=O)[O-])o1 (centres undefined)")
"not met"
>>> class_label("O=C(O)c1cc(/N=N/c2ccc(S(=O)(=O)Nc3ccccn3)cc2)ccc1O")
"not met"
>>> class_label("CC(C)(C)c1ccc(C(O)CCCN2CCC(C(O)(c3ccccc3)c3ccccc3)CC2)cc1 (centres undefined)")
"met"
>>> class_label("NC(=O)c1cc[n+](CC2=C(C(=O)[O-])N3C(=O)[C@@H](NC(=O)[C@@H](c4ccccc4)S(=O)(=O)[O-])[C@H]3SC2)cc1.[Na+] [CEFSULODIN SODIUM]")
"not met"
>>> class_label("O=C(Cn1ccnc1[N+](=O)[O-])NCc1ccccc1")
"not met"
>>> class_label("COC(=O)Nc1nc2cc(C(=O)c3ccc(F)cc3)ccc2[nH]1")
"not met"

* * *

System: Trypanosoma cruzi
Experiment: Trypanocidal activity against trypomastigote stage of Trypanosoma cruzi NINOA infected in NIH mouse blood assessed as parasite lysis at 50 ug/ml after 24 hrs by optical microscopic method relative to control
Type: functional
# note: boundary value 90% maps to false; Activity below it maps to true

>>> class_label("NC(=O)c1cc[n+](CC2=C(C(=O)[O-])N3C(=O)[C@@H](NC(=O)[C@@H](c4ccccc4)S(=O)(=O)[O-])[C@H]3SC2)cc1.[Na+] [CEFSULODIN SODIUM]")
"true"
>>> class_label("O=C(Cn1ccnc1[N+](=O)[O-])NCc1ccccc1 [BENZNIDAZOLE]")
"true"
>>> class_label("CC1CS(=O)(=O)CCN1/N=C/c1ccc([N+](=O)[O-])o1 (centres undefined) [NIFURTIMOX]")
"true"
>>> class_label("CCN1CCN(C(=O)N[C@@H](C(=O)N[C@@H]2C(=O)N3C(C(=O)[O-])=C(CSc4nnnn4C)CS[C@H]23)c2ccc(O)cc2)C(=O)C1=O.[Na+] [CEFOPERAZONE SODIUM]")
"true"
>>> class_label("COC(=O)Nc1nc2cc(C(=O)c3ccc(F)cc3)ccc2[nH]1 [FLUBENDAZOLE]")
"true"
>>> class_label("CC(C)(C)c1ccc(C(O)CCCN2CCC(C(O)(c3ccccc3)c3ccccc3)CC2)cc1 (centres undefined) [TERFENADINE]")
"false"
>>> class_label("COc1cc2nc(N3CCN(C(=O)C4COc5ccccc5O4)CC3)nc(N)c2cc1OC.CS(=O)(=O)O (centres undefined) [DOXAZOSIN MESYLATE]")
"false"

* * *

Molecular target: UniProt:Q26964
Sequence (Q26964 as listed by the source): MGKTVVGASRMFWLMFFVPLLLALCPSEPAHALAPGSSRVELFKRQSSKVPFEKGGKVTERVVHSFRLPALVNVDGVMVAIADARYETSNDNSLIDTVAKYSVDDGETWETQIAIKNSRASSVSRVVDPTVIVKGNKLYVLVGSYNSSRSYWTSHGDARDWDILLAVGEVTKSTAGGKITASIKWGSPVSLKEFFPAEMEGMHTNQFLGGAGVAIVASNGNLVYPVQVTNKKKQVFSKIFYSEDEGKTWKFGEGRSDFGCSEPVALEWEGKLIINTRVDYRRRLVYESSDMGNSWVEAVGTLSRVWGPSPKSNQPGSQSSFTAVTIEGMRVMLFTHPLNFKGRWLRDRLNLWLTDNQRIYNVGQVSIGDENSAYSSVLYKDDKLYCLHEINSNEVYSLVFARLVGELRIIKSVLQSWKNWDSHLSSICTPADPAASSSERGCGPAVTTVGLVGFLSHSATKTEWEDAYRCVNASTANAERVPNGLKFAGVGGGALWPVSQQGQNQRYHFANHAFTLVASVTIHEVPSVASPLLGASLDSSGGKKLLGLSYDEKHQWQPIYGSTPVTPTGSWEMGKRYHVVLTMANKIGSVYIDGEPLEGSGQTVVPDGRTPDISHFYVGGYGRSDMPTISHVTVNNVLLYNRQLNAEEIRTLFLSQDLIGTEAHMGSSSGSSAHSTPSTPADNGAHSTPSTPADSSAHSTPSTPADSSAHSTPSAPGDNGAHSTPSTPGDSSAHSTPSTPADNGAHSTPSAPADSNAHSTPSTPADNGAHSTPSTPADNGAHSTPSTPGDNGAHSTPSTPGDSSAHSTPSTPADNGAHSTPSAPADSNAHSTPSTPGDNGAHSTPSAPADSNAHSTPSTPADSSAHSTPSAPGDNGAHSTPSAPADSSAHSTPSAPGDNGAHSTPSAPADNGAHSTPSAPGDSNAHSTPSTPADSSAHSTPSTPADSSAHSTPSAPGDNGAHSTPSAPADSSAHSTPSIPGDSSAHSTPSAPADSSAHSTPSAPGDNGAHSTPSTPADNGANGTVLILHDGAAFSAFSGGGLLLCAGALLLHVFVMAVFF
Test: Inhibition of Trypanosoma cruzi trans-sialidase at 1 mM using N-acetyllactosamine as substrate in presence of 3'-sialyllactose measured after 15 mins by HPAEC-PAD relative to control
Active and inactive are the calls of the source. The rule behind the calls is not given here.
ASSAY_METRIC: inhibition

>>> observed_value("CC(C)(C)c1ccc(C(O)CCCN2CCC(C(O)(c3ccccc3)c3ccccc3)CC2)cc1 (stereo unspecified) [TERFENADINE]")
"8.2%"
>>> observed_value("COc1cc2nc(N3CCN(C(=O)C4COc5ccccc5O4)CC3)nc(N)c2cc1OC.CS(=O)(=O)O (stereo unspecified) [DOXAZOSIN MESYLATE]")
"5.3%"
>>> observed_value("COC(=O)Nc1nc2cc(C(=O)c3ccc(F)cc3)ccc2[nH]1 [FLUBENDAZOLE]")
"inactive"
>>> observed_value("O=C(O)c1cc(/N=N/c2ccc(S(=O)(=O)Nc3ccccn3)cc2)ccc1O [SULFASALAZINE]")
"37.6%"
>>> observed_value("NC(=O)c1cc[n+](CC2=C(C(=O)[O-])N3C(=O)[C@@H](NC(=O)[C@@H](c4ccccc4)S(=O)(=O)O)[C@H]3SC2)cc1")
"inactive"
>>> observed_value("CCN1CCN(C(=O)N[C@@H](C(=O)N[C@@H]2C(=O)N3C(C(=O)[O-])=C(CSc4nnnn4C)CS[C@H]23)c2ccc(O)cc2)C(=O)C1=O.[Na+] [CEFOPERAZONE SODIUM]")
"10.1%"
